# Assay System: CD73 on 4T1 mouse cells (Mus musculus, UniProt Q61503)
# Construct: host or cells: 4T1
# Sequence (Q61503 29-551): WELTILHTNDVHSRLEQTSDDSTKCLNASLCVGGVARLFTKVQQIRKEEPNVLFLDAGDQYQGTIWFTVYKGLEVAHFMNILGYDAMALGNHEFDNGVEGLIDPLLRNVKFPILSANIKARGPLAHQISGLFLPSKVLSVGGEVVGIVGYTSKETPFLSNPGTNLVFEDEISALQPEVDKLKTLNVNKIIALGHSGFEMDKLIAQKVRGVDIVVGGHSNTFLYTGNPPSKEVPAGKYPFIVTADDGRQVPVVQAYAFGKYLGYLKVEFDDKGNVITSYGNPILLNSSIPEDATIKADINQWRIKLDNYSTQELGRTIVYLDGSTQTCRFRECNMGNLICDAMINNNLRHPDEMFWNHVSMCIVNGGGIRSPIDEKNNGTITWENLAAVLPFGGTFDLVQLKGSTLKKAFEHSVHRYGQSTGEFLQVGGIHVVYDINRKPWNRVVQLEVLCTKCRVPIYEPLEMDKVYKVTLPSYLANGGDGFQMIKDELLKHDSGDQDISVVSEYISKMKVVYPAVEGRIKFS
# Test Method Notes: CD73 enzyme inhibition assay with mouse 4T1 cells (PiColorLock)
# Assay type: cell-based
# Condition Info: 4T1 cancer cells, AMP 100 μM, 24 h; read-out: 24 h IC50
Endpoint Name: IC50 (nM)

(I) C[C@H](Nc1cc(Cl)nc2c1cnn2[C@@H]1O[C@H](COP(=O)(O)CP(=O)(O)O)[C@@H](O)[C@H]1O)c1ccccc1F
(II) COC[C@](CO)(OC[C@H]1O[C@@H](n2ncc3c(NC4CCCC4)nc(Cl)nc32)[C@H](O)[C@@H]1O)P(=O)(O)O
Data request: For the pair I and II , which member has the lower IC50 number? Reply with the label of the item you choose.
Data returned: II
